# tested-on: Human DGAT2 (hDGAT2) (Homo sapiens (Human))
# Sequence (Q96PD7 whole entry): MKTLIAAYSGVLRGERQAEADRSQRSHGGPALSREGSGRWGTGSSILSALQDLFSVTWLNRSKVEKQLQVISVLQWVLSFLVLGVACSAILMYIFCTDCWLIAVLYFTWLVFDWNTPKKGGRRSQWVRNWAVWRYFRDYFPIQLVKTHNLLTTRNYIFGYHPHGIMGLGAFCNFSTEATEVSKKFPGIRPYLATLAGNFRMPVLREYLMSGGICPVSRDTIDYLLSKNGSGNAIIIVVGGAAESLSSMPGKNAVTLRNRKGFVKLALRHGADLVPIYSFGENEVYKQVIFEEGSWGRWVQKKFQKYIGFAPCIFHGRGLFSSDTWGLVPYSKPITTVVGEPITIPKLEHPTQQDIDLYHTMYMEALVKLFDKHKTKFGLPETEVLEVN
# assay-summary: In vitro DGAT2 assay, IC50 determination with hDGAT2 membrane fraction
# Type: biochemical
# condition-info: geometric mean; background for complete inhibition of DGAT2 obtained with 50 μM (1R,2R)-2-({3′-Fluoro-4′-[(6-fluoro-1,3-benzothiazol-2-yl)amino]-1,1′-biphenyl-4-yl}carbonyl)cyclopentanecarboxylic acid; read-out: DGAT2 IC50
# Experimental: Recombinant baculovirus for the FLAG-tagged hDGAT2 was generated in SF9 insect cells using Bac-to-Bac baculovirus expression system (Invitrogen) according to the manufacturer's protocol. For the expression of hDGAT2, SF9 cells (20 L) grown in Sf900II media were infected with hDGAT2 baculovirus at a multiplicity of infection of 1 in a Wave Bioreactor System 20/50P wave bag (GE Healthcare). After 40 hours of infection, the cells were then harvested by centrifugation at 5,000×g. […]
value-kind: IC50
Could you give the number and then its unit, please?

{"columns": ["compound", "value-kind", "result"],
 "data": [
  ["O=C([C@@H]1CCCN(c2ccc3nc(-c4cncc(Cl)c4)[nH]c3n2)C1)N1CCCC1 [Example 7]", "IC50", "16.3 nM"],
  ["O=C(C1CCCC1)N1CCCC(c2nc3ccc(N4CCC[C@@H](C(=O)N5CCCC5)C4)nc3[nH]2)C1 (stereo partly drawn) [Example 62]", "IC50", "241 nM"],
  ["O=C([C@@H]1CCCN(c2ccc3nc(-c4ccnc(C5CC5)n4)[nH]c3n2)C1)N1C[C@H]2C[C@@H]1CO2 [Example 174]", "IC50", "1170 nM"],
  ["c1cc(-c2nc3ccc(N4CCC[C@@H](c5ncc6n5CCC6)C4)nc3[nH]2)nc(C2CC2)n1 [Example 134]", "IC50", "210 nM"],
  ["O=C([C@H]1CN(c2ncc3nc(C4(n5cc(Cl)cn5)CC4)[nH]c3n2)CCO1)N1CCCC1 [Example 213]", "IC50", "161 nM"],
  ["c1ccc(C2CCCN(c3ccc4nc(-c5ccnc(C6CC6)n5)[nH]c4n3)C2)nc1 (stereo not drawn) [Example 59]", "IC50", "858 nM"]
]}

Working through the 5 compounds below one at a time, give IC50 for each.
1. O=C([C@@H]1CCCN(c2ccc3nc(C(F)(F)c4ccccc4)[nH]c3n2)C1)N1CCCC1 [Example 166]
2. N#Cc1cccc(-c2nc3ccc(N4CCC[C@@H](C(=O)N5CCCC5)C4)nc3[nH]2)c1 [Example 47]
3. O=C([C@@H]1CCCN(c2ccc3nc(-c4cc(C5CC5)ccn4)[nH]c3n2)C1)N1CCCC1 [Example 98]
4. CC(c1ccccc1)c1nc2ccc(N3CCC[C@@H](C(=O)N4CCCC4)C3)nc2[nH]1 (stereo partly drawn) [Example 157]
5. NS(=O)(=O)c1cccc(-c2nc3ccc(N4CCC[C@@H](C(=O)N5CCCC5)C4)nc3[nH]2)c1 [Example 114]

["2280 nM", "34.5 nM", "94.4 nM", "211 nM", "90.3 nM"]

Working through the 3 compounds below one at a time, give IC50 for each.
1. CC(C)(c1ccccc1)c1nc2ccc(N3CCC[C@@H](C(=O)N4CCCC4)C3)nc2[nH]1 [Example 22]
2. Cc1ccc(C2(c3nc4ccc(N5CCC[C@@H](C(=O)N6CCCC6)C5)nc4[nH]3)CC2)cc1 [Example 103]
3. CC(C)(O)c1csc(-c2nc3ccc(N4CCC[C@@H](C(=O)N5CCCC5)C4)nc3[nH]2)n1 [Example 140]

1. 357 nM
2. 73.7 nM
3. 207 nM

IC50 value, target or system Human DGAT2 (hDGAT2) (Homo sapiens (Human)), for O=C([C@@H]1CCCN(c2ccc3nc(-c4ccnc(C5CC5)n4)[nH]c3n2)C1)N1CCCC1 [Example 95] : 18.2 nM
